system-name: C5aR (Homo sapiens (Human), UniProt P21730)
Sequence (P21730 whole entry): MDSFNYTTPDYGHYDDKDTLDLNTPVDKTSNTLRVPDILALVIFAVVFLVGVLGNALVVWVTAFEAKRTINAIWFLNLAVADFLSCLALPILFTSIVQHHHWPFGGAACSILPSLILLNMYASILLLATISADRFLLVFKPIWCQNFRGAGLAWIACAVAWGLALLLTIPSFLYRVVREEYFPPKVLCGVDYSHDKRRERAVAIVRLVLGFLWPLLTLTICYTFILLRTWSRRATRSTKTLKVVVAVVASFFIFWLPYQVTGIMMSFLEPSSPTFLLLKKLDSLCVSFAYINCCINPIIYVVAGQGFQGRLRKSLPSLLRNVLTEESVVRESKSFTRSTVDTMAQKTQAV
procedure-summary: Chemotaxis assay using U937 cells (C5aR mediated migration)
run-conditions: read-out: Mig IC50
Description: U937 cells are a monocytic cell line which express C5aR, and are available from ATCC (VA). […] Optionally, compounds may be further assayed for their ability to inhibit chemotaxis in cells. […] The chambers are incubated 1.5 hours at 37° C., and the number of cells in the lower chamber quantified either by direct cell counts in five high powered fields per well or by the CyQuant assay (Molecular Probes), a fluorescent dye method that measures nucleic acid content and microscopic observation. […]

input-smiles: COc1cc(NC(N)=O)c(F)cc1-c1c2c(nn1-c1c(C)cccc1C)CCN(c1ccc(Cl)cc1Cl)C2
IC50: ≤ 5 nM
--
input-smiles: Cc1ccc(C(C)(C)C)cc1N1CCc2nn(-c3c(C)cccc3C)c(-c3ccc(O)cc3)c2C1
IC50: 5 to 50 nM
--
input-smiles: CCc1cccc(CC)c1-n1nc2c(c1-c1ccc(NC(N)=O)cc1)CN(Cc1ccccc1C(F)(F)F)CC2
IC50: 5 to 50 nM
--
input-smiles: CC(C)COc1cccnc1-n1nc2c(c1-c1cc(F)c(NC(N)=O)cc1F)CN(c1ncc(Cl)cc1Cl)CC2
IC50: 5 to 50 nM

----------
system-name: C5aR (Homo sapiens (Human))
procedure-summary: Chemotaxis assay using U937 cells (C5aR mediated migration)
run-conditions: read-out: Mig IC50
pIC50: −log10 of the molar value.
Property: pIC50; scope: individual molecules

input-smiles: CCc1cccc(CC)c1-n1nc2c(c1-c1cc(F)c(NC(N)=O)cc1F)CN(Cc1cc(Cl)ccc1Cl)C(C)(C)C2
pIC50: ≥ 8.30
//
input-smiles: Cc1cccc(OCC(C)C)c1-n1nc2c(c1-c1ccc(NC(N)=O)cc1)CN(c1cnc(C(F)(F)F)cn1)CC2
pIC50: 7.30 to 8.30
//
input-smiles: Cc1cccc(OCC(C)C)c1-n1nc2c(c1-c1ccc(NC(N)=O)cc1)CN(CC(C)(C)C(F)(F)F)CC2
pIC50: 7.30 to 8.30
//
input-smiles: Cc1cc(C(C)(C)O)cnc1N1CCc2nn(-c3c(C)cccc3OCC(C)C)c(-c3ccc(NC(N)=O)cc3)c2C1
pIC50: < 6.30
//
input-smiles: Cc1cccc(OCC(C)C)c1-n1nc2c(c1-c1ccc(NC(N)=O)cc1)CN(C(=O)COC(C)(C)C)CC2
pIC50: < 6.30
//
input-smiles: Cc1cccc(OCC(C)C)c1-n1nc2c(c1-c1ccc(NC(N)=O)cc1)CN(CC(C)(C(F)(F)F)C(F)(F)F)CC2
pIC50: ≥ 8.30
//
input-smiles: Cc1cccc(OCC(C)C)c1-n1nc2c(c1-c1ccc(C(C)(C)O)cc1)CN(c1ccccc1C(C)(C)C)CC2
pIC50: < 6.30

----------
system-name: C5aR (Homo sapiens (Human))
procedure-summary: Chemotaxis assay using U937 cells (C5aR mediated migration)
run-conditions: read-out: Mig IC50
pIC50: −log10 of the molar value.
experimental-readout: pIC50

input-smiles: Cc1cccc(C)c1-n1nc2c(c1-c1cc(F)c(NC(N)=O)cc1F)CN(c1ncc(C(C)C)cc1F)CC2
recorded-value: ≥ 8.30
--
input-smiles: CC[C@@H](c1ccccc1)N1CCc2nn(-c3c(C)cccc3C)c(-c3ccc(NC(N)=O)cc3)c2C1
recorded-value: 6.30 to 7.30
--
input-smiles: Cc1ccc(C(C)(C)C)cc1N1CCc2nn(-c3ccccc3C(C)C)c(-c3ccc(NC(N)=O)cc3)c2C1
recorded-value: 6.30 to 7.30
--
input-smiles: Cc1cccc(OCC(C)C)c1-n1nc2c(c1-c1ccc(NC(N)=O)cc1)CN(CC1CCCC1)CC2
recorded-value: 7.30 to 8.30
--
input-smiles: CCc1cccc(CC)c1-n1nc2c(c1-c1cc(F)c(NC(N)=O)cc1F)CN(c1ncc(Cl)cc1Cl)[C@H](C)C2
recorded-value: ≥ 8.30
--
input-smiles: CCc1cccc(CC)c1-n1nc2c(c1-c1cc(F)c(NC(N)=O)cc1F)CN(Cc1cc(Cl)ccc1Cl)CC2
recorded-value: ≥ 8.30
--
input-smiles: Cc1cccc(OCC(C)C)c1-n1nc2c(c1-c1ccc(NC(N)=O)cc1)CN(C1CCCC1)CC2
recorded-value: 6.30 to 7.30

----------
system-name: C5aR (Homo sapiens (Human), UniProt P21730)
procedure-summary: Chemotaxis assay using U937 cells (C5aR mediated migration)
run-conditions: read-out: Mig IC50
Protocol: U937 cells are a monocytic cell line which express C5aR, and are available from ATCC (VA). […] Optionally, compounds may be further assayed for their ability to inhibit chemotaxis in cells. […] The chambers are incubated 1.5 hours at 37° C., and the number of cells in the lower chamber quantified either by direct cell counts in five high powered fields per well or by the CyQuant assay (Molecular Probes), a fluorescent dye method that measures nucleic acid content and microscopic observation. […]
Property: IC50; scope: individual compounds

compound: Cc1cccc(OCC(C)C)c1-n1nc2c(c1-c1ccc(NC(N)=O)cc1)CN(c1ncc(C(F)(F)F)cc1Cl)CC2
IC50: 5 to 50 nM

compound: CCc1cccc(CC)c1-n1nc2c(c1-c1cc(F)c(NC(N)=O)cc1OC)CN(Cc1ccc(C(F)(F)F)cc1C(F)(F)F)CC2
IC50: ≤ 5 nM

compound: Cc1cc(C(C)C)cnc1N1CCc2nn(-c3c(C)cccc3OCC(C)C)c(-c3ccc(NC(N)=O)cc3)c2C1
IC50: 5 to 50 nM

compound: Cc1cc(-c2c3c(nn2-c2c(C)cccc2OCC(C)C)CCN(c2ncc(C(F)(F)F)cc2F)C3)cc(C)c1NC(N)=O
IC50: > 500 nM

compound: Cc1cccc(OCC(C)C)c1-n1nc2c(c1-c1ccc(NC(N)=O)cc1)CN(c1ccc(C(F)(F)F)cc1C(F)(F)F)CC2
IC50: ≤ 5 nM

compound: Cc1cccc(OCC(C)C)c1-n1nc2c(c1-c1ccc(NC(N)=O)cc1)CN(C(=O)c1cccc(C(C)(C)C)c1)CC2
IC50: 50 to 500 nM

compound: CCc1cccc(CC)c1-n1nc2c(c1-c1cc(F)c(NC(N)=O)cc1F)CN(Cc1ccc(Cl)cc1Cl)CC2
IC50: ≤ 5 nM

compound: Cc1cccc(OCC(C)C)c1-n1nc2c(c1-c1ccc(NC(N)=O)c(F)c1)CN(S(=O)(=O)c1ccccc1C(F)(F)F)CC2
IC50: 5 to 50 nM

compound: Cc1cccc(C)c1-n1nc2c(c1-c1cc(F)c(NC(N)=O)cc1F)CN(c1ncc(C(F)(F)F)cc1F)CC2
IC50: ≤ 5 nM

compound: CCc1cccc(CC)c1-n1nc2c(c1-c1ccc(NC(N)=O)c(F)c1)CN(C(C)C1CCCCC1)CC2 (stereo not drawn)
IC50: ≤ 5 nM

compound: COc1cccc(C)c1-n1nc2c(c1-c1ccc(NC(N)=O)cc1)CN(c1ncccc1C)CC2
IC50: 50 to 500 nM

compound: Cc1cccc(OCC(C)C)c1-n1nc2c(c1-c1ccc(NC(N)=O)cc1)CN(C(C)(C)c1ccccc1)CC2
IC50: 5 to 50 nM

compound: COc1cccc(C)c1-n1nc2c(c1-c1ccc(NC3CCCC3)cc1)CN(c1ccccc1C)CC2
IC50: > 500 nM

compound: CCc1cccc(CC)c1-n1nc2c(c1-c1ccc(NC(N)=O)cc1)CN(Cc1cc(Cl)ccc1OC(C)C)CC2
IC50: 5 to 50 nM

compound: COc1cc(CN2CCc3nn(-c4c(C)cccc4OCC(C)C)c(-c4ccc(NC(N)=O)cc4)c3C2)c(F)cc1Cl
IC50: 5 to 50 nM

compound: C=C(C)c1cnc(N2CCc3nn(-c4c(C)cccc4OCC(C)C)c(-c4ccc(NC(N)=O)c(F)c4)c3C2)c(F)c1
IC50: ≤ 5 nM

compound: CCc1cccc(CC)c1-n1nc2c(c1-c1cc(F)c(NC(N)=O)cc1F)CN(CC(C)(C)C(F)(F)F)CC2
IC50: ≤ 5 nM

compound: Cc1cccc(OCC(C)C)c1-n1nc2c(c1-c1ccc(NC(N)=O)c(F)c1)CN(c1ncc(C(F)(F)F)cc1Cl)CC2
IC50: ≤ 5 nM

compound: CCc1cccc(CC)c1-n1nc2c(c1-c1cc(F)c(NC(N)=O)cc1F)CN(Cc1cc(Cl)ccc1C(F)(F)F)C(C)(C)C2
IC50: ≤ 5 nM

compound: Cc1cccc(OCC(C)C)c1-n1nc2c(c1-c1ccc(NC(N)=O)cc1)CN(Cc1cc(Cl)ccc1Cl)CC2(C)C
IC50: > 500 nM

compound: Cc1cccc(C)c1-n1nc2c(c1-c1cc(F)c(NC(N)=O)cc1F)CN(c1ccc(Cl)cc1F)CC2
IC50: ≤ 5 nM

compound: Cc1cccc(OCC(C)C)c1-n1nc2c(c1-c1cc(F)c(NC(N)=O)cc1F)CN(c1ncc(Cl)cc1F)CC2
IC50: ≤ 5 nM

compound: CCc1cccc(CC)c1-n1nc2c(c1-c1cc(F)c(NC(N)=O)cc1F)CN(CC1CCOCC1)CC2
IC50: 5 to 50 nM

compound: Cc1cccc(OCC(C)C)c1-n1nc2c(c1-c1ccc(NC(N)=O)cc1)CN(CC(C)(C)C#N)CC2
IC50: 50 to 500 nM

compound: Cc1cccc(C)c1-n1nc2c(c1-c1cc(F)c(N)cc1F)CN(c1ncc(Cl)cc1Cl)CC2
IC50: > 500 nM

compound: CCc1cccc(CC)c1-n1nc2c(c1-c1ccc(NC(N)=O)cc1)CN(c1ncc(C(F)(F)F)cc1F)CC2
IC50: 5 to 50 nM

compound: Cc1cccc(OCC(C)C)c1-n1nc2c(c1-c1cc(F)c(NC(N)=O)cc1F)CN(c1ccc(Cl)cn1)CC2
IC50: ≤ 5 nM
